- Test system: KB
- Assay Protocol: Cytotoxicity against human KB cells
- Type: functional, cell-based
Endpoint: IC50 (nM)
Number in nM, nothing else.

Query: Quick check: IC50 on KB, item COc1cc(OC)c(-c2coc3c4c(c(OC)cc3c2=O)OC(C)(C)C=C4)cc1OC ?
Reply: 2000

These measurements were taken from ChEMBL document CHEMBL6083195.
